Readings of polymerase ribozyme fitness (log ratio) for the listed variants
B1: TPR t1 (parent)
chain: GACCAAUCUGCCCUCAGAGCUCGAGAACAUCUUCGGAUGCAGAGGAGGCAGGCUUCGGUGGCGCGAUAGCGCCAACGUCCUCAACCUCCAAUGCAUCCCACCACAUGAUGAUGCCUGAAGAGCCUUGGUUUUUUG

Variants of: B1
Test Description: polymerase ribozyme fitness, log enrichment relative to wild type (log ratio); higher = more active; in vitro selection for triplet polymerase activity
Measure: polymerase ribozyme fitness (log ratio)

>>> assay_result("GACCAAUCUGCCCUCAGAGCUCGAGAACAUCUUCGGAUGCAGAGGAGGCAGGCUUCGGUGGCGCGAUAGCGCCAACGUCUUCAACCUCCAAUGCAUCCCACCACAUGAUGAUGCCUGAAGUGCCUUGGUUUUUUG")
1.34
>>> assay_result("GACCAAUCUGCGCUCAGAGCUCGAGAACAUCUUCGGAUGCAGAGGAGGCAGGCUUCGGUGGCGCGAUAGCGUCAACGUCCUCAACCUCCAAUGCAUCCCACCACAUGAUGAUGCCAGAAUAGCCUUGGUUUUUUG")
-0.787
>>> assay_result("GACCAAUCUGCCCUCAGAGCUCGAGAACAUCUUCGGAUGCAUAGGAGGCAGGCUUGGGUGGCGCGAUAGCGCCAACGUCCUCAACCUCCAAUGCAUCCCACCACAUGAUGAUGCCUGAAGAGUCUUGGUUUUUUG")
-0.406
>>> assay_result("GACCAAUCUGCCCUCAGAGCUCGAGAACAUCUUCGGAUGCAGAGGAGGCAGGCUUCGGUGGCGCGAUAUCGCCAACGUCCUCAACCUCCAAUUCAUCCCACCACAUGAUGAUGCCUGAAGAGCCUUGGUUUUUUG")
-1.01
>>> assay_result("GACCAAUCUGCCCUCAGAGCUCGAGAACAUCUUCGGAUGCAGAGGAUGCAGGAUUCGGUGGCGCGAUAGUGCCAACGUCCUCAACCUCCAAUGCAUCCCACCACAUGAUGAUGCCUGAAGAGCCUCGGUUUUUUG")
-2.43
>>> assay_result("GACCAAUCUGCCCUCAGAGCUCGAGAACAUCUUCGGAUGCAGAGGAGGGAGACUUCGGUGGCGCGAUAGCGCCAACGUCCUGAGCCUCCAAUGCAUCCCACCACAUGAUGAUGCCUGAAGUGCCUUGGUUUUUUG")
0.784
>>> assay_result("GACCAAUCUGCCCUCAGAGCUCGAGAACAUCUUCGGAUGCAGAGGAGGCAGGCUUCGGUGGCGCGAUAACGCCAACGUCCUCAACCUCCAAUGCAUCCCACCACAUGAUGAUACCUGAAGAGCCUUCGUUUUUUG")
-3.93
>>> assay_result("GACCAAUCUGCCCUGAGAGCUCGAGAACAUCUUCGGAUGCAGAGGAGACAGGCUUCGGUGGCGCGAUAGCGCCAACGUCCUCAAGCUCCAAUGCAUCCCACCACAUGAUGAUGCCUGAAGAGCCUUGGUUUUUUG")
-3.62
>>> assay_result("GACCAAUCUGCCCUCAGCGCUCGAGAACUUCUUCGGAUGCAGAGGAGGCAGGCUUCGGUGGCGCGAUAGCGCCAACGUCCUCAACCUUUAAUGCAUUCCACCACAUGAUGAUGCCUGAAGAGCCUUGGUUUUUUG")
-4.49
>>> assay_result("GACCAAUCUGCCCUCAGAGCUCGAGAACAUCUUCGGAUGCAGAGGAGGCAGGCAUCGGUGGCGCGAUAGCGCCAACGUCCUCAACCUCCAAUGCAUCCCACCACAUGAUGAUGCUUGAAGAGCCUUGGUUCUUUC")
-1.35
>>> assay_result("GACCAAUCUGCCCUCAGAGCUCGAGAACAUCUUCGGAUGCAGAGCAGGCAGGCUUCGGUGGCGCGAUAGCGCCAACGUCCUAAACCUCCAAUGCAUCCCAUCACAUGAUGAUGCCUGAAGAGCCUUGGUUUUUUG")
-2.68
>>> assay_result("GACCAAUCUGCCCUCAGAGCUCGAGAACAUCUUCGCAUGCAGAAGAGGCAGGCUUCGGUGGCGCGAUAGCACCAGCGUCCUCAACCUCAAAUGCAUCCCACCACAUGAUGAUGCCUGAAGAGCCUUGGUUUUUUG")
-3.61
>>> assay_result("GACCAAUCUGCUCUCAGAGCUCGAGAACAUCUUCGGAUGCAGAGGAGGCAGGCUUCGGUGGCGCGAUAGCGCCAACGUCCUCAACCUCCAAUGCAUCCCACCACAUGGUGAUGCCUGAAGAGCCUUGGUAUUUUG")
-3.19
>>> assay_result("GACCAAUCUGCCCUCAGAGCUCGAGAACAUCUUCGGAUGCAGAGGAGGCAGGGUUUGGUGGCGCGAUAGCGCCAACGUCCUCAACCUCCAAUGCAUCCCACCACAUGAUGAUGCCUGAAGAGCCUUGGUUUUUUG")
-0.756
>>> assay_result("GACCAAUCUGCCCUCAGAGCUCGAGAACAUUUUCGGAUGCAGAGGAGGCAGGCUUCGGUGGCGCGAUAUCGCCAACGUCCUCAACCUCCAAUGCAUCUCACCACAUGAUGAUGCCUGAGGAGCCUUGGUUUUUUG")
-3.7
>>> assay_result("GACCAAUCUGCCCUCAGAGCUCGAGAACAUCUUCGGAUGCAGAGGAGGCAGGAUUCGGUGGCGCGAUAGCCCCAACGUCCUCAAACUCCAAUGCAUCCCACCACAUGAUGAUGCCUAAAGAGCCGUGGUUUUUUG")
-5.65
>>> assay_result("GACCAAUCUGCCCUCAGAGCUCGAGAACAUCUUCGGAUGCAGAGGAGGCAGGCUUCGGUGGCGCGAUAGCGCCAACGUCCUCAACCUGCAAUGCAUCCCACCACAUGAUGAUGCCUGAAGAGCCUUGCUUUUUUG")
-3.43
>>> assay_result("GACCAUUCUGCCCUCAGAGCUCGAGAACAUCUUCGGAUGCAGAUGAGGCAGGCUUCGGUGGCGCGAUAGCGCCAACGUCCUCAACCUCCAAUGCAUCCCACCACAUGAUGAUGCCUGAAGAGCCUUGGUUUUUUG")
-1.52
>>> assay_result("GACCAAUCUGCCCUCAGAGAUCGAGAACAUCUUCGGAUGCAGAGGAGGCAGGCUUCGGUGGCGUGAUAGCGCCAACGCCCUCAACCUCCAAUGCAACCCACGACAUGAUGAUGACUGAAGAGCCUUGGUUUUUUG")
-6.83
>>> assay_result("GACCAAUCUGCCCUCAGAGCCCGAGAACAUCUUCGGAUGCAAAGGAGGCAGGCUUCGGUGGCGCGAUAGCGCCAACGUCCUCAACCUCCAAUGCAUCCCACCACAUGAAGAUGCCUCAAGAGCCUUGGUUUUUUG")
-7.38
>>> assay_result("GACCAAUCUGCCCUCAGAGCUCGAGAACAUCCUCCGAUGCAGAGGAGGCAGGAUUCGGUGGCGCGAUAGCGCCAACGACCUCAACCUCCAAUGCAUCCCACCACAUGAUGAUGCCUGAAGAGCCUUGGUUUUUUG")
-4.25
>>> assay_result("GACCAAUCUGCCCUCAGAGCUCGAGAACAUCUUCGGAUGCAGAGGAGGCAGGCUUCGGUGGCGCGAUAGCGCCAACGUCCUCAACCACCAAUGCAUCCCACUAAAUGAUGAUGCCUGAAGAGCCUUGGUUUUUUG")
-1.05
>>> assay_result("GACCAAUCUGCCCUCAGAGCUCGAGAACAUCUUCGGAUGCACAGGAGGCAGGUUUCGGUGGCGCGAUAGCGCCAACGUCCUCAACCUCCAAUACAUCCCACCACAUGAUGAUGCCUGAAGAGCCUUGGUUUUUUG")
-3.13
>>> assay_result("GACCAAUCUGCCCUCAGAGCUCGAGAACAUCUUCGGAUGCAGAGGAGGCAGGCUUCGGUGGCCCGAUAGCGCCAACGUCCUCAACCUCCAAUGCAUCCCACCACAUGAUGAUGCCUGAAGAGCCUUGCUUUUUUG")
-3.04
>>> assay_result("GACCAAUCUGCCCUCAGAGCUCGAGAACAUCUCCGGAUGCAGAGGAGGCAGGCUUCGGUGGCGCGAUAGCGCCAACGUCCUCAACCUCCAAUGCAUCCGACCACAUGAAGAUGCCUGAAGAGCCUUGGUUUUUUG")
-7.26
>>> assay_result("GACCAAGCUGCCCUCAGAGCUCGAGAACAUCUUCGGAUGCAGAGGUGGCAGGCUUCGGUGGCGCGAUAGCGCCAACGUCCUCAACCUCCAAUUCAUCCCACCACAUGAUGAUGCCUGAAGAGCCUUGGUUUUUUG")
-2.2
>>> assay_result("GACCAAUCUGCCCUCAGAGCUCGAGAACAUCUUCGGAUGCAGAGGAGGCAGGGUUCGGUGGCGCGAUAGCGCCAACGUCCUCAACCUCUAAUGCAUCCCACCACAUGAUGAUGCCUGAAGAGCCUUGGUUUUUUG")
-0.681
>>> assay_result("GACCAAUCUGCCCUCAGAGCUCGAGAACAUCUUCGGAUGCAGAGGAGGGAGGCUUCGGUGGCGCGAUAGCGCCCACGUCCUCAACCUCCAAUGCAUCCCACCACAUGAUGAUACCUGAAGAGCCUUGGUUUUUUG")
-2.39
>>> assay_result("GACCAAUCUGCCCUCAGAGCUCGAGAACAUCUUCGGAUGCAGAGGAGGCAGGCUUCGGUGACGCGAUAGCGCCAACGUCCUCAACCUCCAAUGCAUCCCACCACAUGAUGUUGCCUGAAGAGCCUUGGUUUUUUG")
-2.88
>>> assay_result("GACCAAUCUGCCCUAAGAGCUCGAGAACAUCUUCGGAUGCAGAGGAGGCAGGCUUCGGUGGCGCGAUAGCGCCAACGUCCUCAAGCUCCAAUGCAUCCCACCACAUGAUGAUGCCUGAAGAGCCUUGGUUUUUUG")
-3.35
>>> assay_result("GACCAAUCUGCCCUCAGAGCUCGAGAACAUCUUCGGAUGCAGAGGAGGCCGGCUUCGGUGGUGCGAUAGCGCCAACGUCCUCAACCUCCAAUGUAUCCCACCACAUGAUGAUGCCUGAAGAGCCUUGGUUUUUUG")
-0.553
>>> assay_result("GACCAAUCUGCCCUCAGAGCUCGAGAACAUCUUCGGAUGCAGAGGAGGCAGGCUUCGGUGGCGCGAUAGCGCCAACGUCCUCAACCUCCAAUGCAUCCCUCCACAUGAUGAUGCCUGAAGAGCCGUGGUUUUUUG")
-0.739
>>> assay_result("GACCAAUCUGCCCUCAGAGCUCGAGAACAUCUUCGGAUGCAGAGGAGGCAGGCUUCGGUGGCGUGAUAGCGCCAACGCCCUCAACCUCCAAUGCACCCCACCACAUGAUGAUGCCUGAAGAGCUUCGGUUUUGUG")
-0.424
>>> assay_result("GACCAAUCUGCCCUCAGAGCUCGAGAACAUCUUCGGAUGCAGAGGAGGCAGGCUUCGGUGGCGGGAUAGCGCCAACGUCCUCAACCUCCAAUGCAUCCCACUACAUGAUGAUGCCUGAAGAGCUUUGGUUUUUUG")
-6.08
>>> assay_result("GACCAAUCUGCCCUCAGAGCUCGAGAACAUCUUCGGAUGCAGAGGAGGCCGGCUUCGGUGGCGCGAUAGCGCCAACGUCCUCAACCCCCAAUGCAUCCCACCACAUGAUGAUGCCUGAAGAGCCUUGGUUUUUUG")
-0.237
>>> assay_result("GACCAAUUUGCCCUCAGAGCUCGAGAACAUCUUCGGAUGCAGAGGAGGCAGGCUUCGGAGGCGCGAUAGCGCCAACGUCCUCAACCUCCAAUGUAUCCCACCACAUGAUGAUGCCUGAUGAGCCUUGGUUUUUUG")
-0.404
>>> assay_result("GACCAAUUUGCCCUCAGAGCUCGAGAACAUCUUCGGAUGCAGAGGAGGCAGUCGUCGGUGGCACGAUAGCGCCAACGUCCUCAACCUCCAAUGCAUCCCACCACAUGAUGAUGCCUGGAGAGCCUUGGUUUUUUG")
-3.26
>>> assay_result("GACCAAUCUGCUCUCAGAGCACGAGAACGUCUUCGGAUGCAGAGGAGGCAGGCUUCGGUGGCACGAUAGCGCCAACGUCCUCAACCUCCAAUGCAUCCCACCACAUGAUGAUGCCUGAAGAGCCUUGGUUUUUUG")
-2.72
>>> assay_result("GACCAAUCUGCCCUCAGAGCUCGAGAACAUCUUCGGAUGCAGAGGAGGCAGGCUUCGGUGGCGCGAUAGCGCCAACGUCCUCAACCUCCAAUGCAUCCCAUCACAUGAUGAUGCCUGAAGAGCCUUGGUUUUUUU")
-1.68
>>> assay_result("GUCCAAUCUGCCCUGAGAGCUCGAGAACAUCUUCGGAUGCAGAGGAGGCAGGCUUCGGUGGCGCGAUAGCGCCAACGUCCUCAACCUCCAAUGCAUCCCACCACAUGAUGAUGCCUGAAGAGCCUUGGUUUUUUG")
-4.66
>>> assay_result("GACCAAUCUGCCCUCAGAGCUCGAGAACAUCUUCGGAUGCAGAGGAGGCAGGCUUCGGUGGCGCGAUAGCGCCAUUGUCCUCAACCUCCAAUGCAUCCCACCACAUGAUGAUGCCUGAAGAGCCUUGGUUUUUUG")
-1.57
>>> assay_result("GACCAAUCUACCCUCAGUGCUCGAGAACAUCUUCGGAUGCAGAGGAGGCAGGCUUCGGUGGCGCGAUAGCGCCAACAUCCUCAACCACCAAUGCAUCCCACCACAUGAUGAUGCAUGAAGAGCCUUGGUUUUUUG")
-1.44
>>> assay_result("GACCAAUCUGCCCUCAGAGCUCGAGAACAUCUUCGGAUGCAGAGGAGGCAGGUUUCGGUGGCGCGAUAGCGCGAACGUCCUCAACCUCCAAUGCAUCCCACCACAUGAUGAUCCCUGAAGAGCCUUGGUUUUUUG")
-4.51
>>> assay_result("GACCAAUCUGCCCUCAGAGCUCGAGAACAUCUUCGGAUGCAGUGGAGGCAGGCUUCGGUGGCGCGAUAGCGCGAACGUCCUCAACCUCCAAUGCAUCCCACCACAUGAUGAUGCCUGAAGAGCCUUGGUUUUUUG")
-2.69
>>> assay_result("GACCAAUCUGCCCUCAGAGCUCGAGAACAUCUUCGGAUGCCGAGGAGGCAGGCUUCGGUGGCGCGAUAGCGUCGACGUCCUCAACCUCCAUUGCCUCCCACCACAUGAUGAUACCUGAAGAGCCUUGGUUUUUUG")
-3.31
>>> assay_result("GACCAAUCUGCCCUCAGAGCUCGAGAACAUCUUCGGAUGCAGAGGAGGCAGGCUUUGGUGGCGCGAUAGCGCCAACGUGCUCAACCUCCAAUGCAUCCCACUAUAUGAUGAUGCCUGAAGAGCCUUGGUUUUUUG")
-4.64
